- experiment_summary: in vitro
- condition_summary: human, hela cells, % viability
value_type: viability at 28.5 h, 10 µM (%)
Answer with a number only, understood to be in %.

{"columns": ["compound", "viability at 28.5 h, 10 µM [%]"],
 "data": [
  ["CC(=O)N1C[C@@H](c2cccc(C)c2)[C@@H]2CN(Cc3ccncc3)CC[C@@H]21 [CBK283370]", 96.1]
]}

Looking up CCOC(=O)C(C)n1nc(C)n2c(cc3sc(C)cc32)c1=O (stereo not shown) [CBK284066] , I found its viability at 28.5 h, 10 µM recorded as 76.8

Looking up COC(=O)C1=C(C)N(c2ccc(C(=O)O)cc2)C(=O)NC1c1cccc(OC)c1OC (stereo not shown) [CBK295355] , I found its viability at 28.5 h, 10 µM recorded as 112

Looking up FC(F)(F)c1ccnc(Sc2ccccn2)n1 [CBK093786] , I found its viability at 28.5 h, 10 µM recorded as 99.3

Looking up O=C(CSc1nnnn1C1CC1)c1cc2ccccc2o1 [CBK297158] , I found its viability at 28.5 h, 10 µM recorded as 90.7

Looking up COc1cccc(CCNC(=O)CCN2C(=O)CCC2=O)c1 [CBK023150] , I found its viability at 28.5 h, 10 µM recorded as 91.8

Looking up COc1ccc(C)cc1-n1ccc(C(=O)NC(C)(C)C)n1 [CBK306315] , I found its viability at 28.5 h, 10 µM recorded as 78.8

Looking up Cc1nn(CC(=O)N2CCC(C)CC2)c(=O)c2cc3occc3n12 [CBK283654] , I found its viability at 28.5 h, 10 µM recorded as 89.8

Looking up COc1ccc(C(C)C)cc1-c1cncc(N2CCN(c3ccccc3C#N)CC2)n1 [CBK037927] , I found its viability at 28.5 h, 10 µM recorded as 98.8

Looking up C=CCN1C(=O)/C(=C2/Sc3ccc(OC)cc3N2C)S/C1=N\c1cc(C#N)ccc1NCC [CBK262431] , I found its viability at 28.5 h, 10 µM recorded as 108

Looking up COc1ccc(C(=O)Nc2nnc(-c3ccc(OC)c(OC)c3)o2)cc1OC [CBK287745] , I found its viability at 28.5 h, 10 µM recorded as 93.7

Looking up CCCNc1nc(-c2cccc(O)c2)cn2ccnc12 [CBK066395] , I found its viability at 28.5 h, 10 µM recorded as 93.5

Looking up CC(C)(C)OC(=O)N1CCN(c2ccc(N)c3ccccc23)CC1 [CBK003162] , I found its viability at 28.5 h, 10 µM recorded as 88.3

Looking up COc1ccc(CNc2cccc(C(=O)O)c2C)cc1OC [CBK269634] , I found its viability at 28.5 h, 10 µM recorded as 109

Looking up CCNC(=O)N1C[C@@H]2OCC(=O)N(Cc3cccnc3)[C@@H]2C1 [CBK289682] , I found its viability at 28.5 h, 10 µM recorded as 109

Looking up COc1nc2ccccc2nc1CCC(=O)NCc1ccco1 [CBK269866] , I found its viability at 28.5 h, 10 µM recorded as 93.4

Looking up Cc1ccc(OCC(=O)NNC(=O)C2COc3ccccc3O2)cc1 (stereo not shown) [CBK263511] , I found its viability at 28.5 h, 10 µM recorded as 95.4

Looking up CC(=O)N1CCN(CCNc2ncnc3sc4c(c23)CCC(C)C4)CC1 (stereo not shown) [CBK304897] , I found its viability at 28.5 h, 10 µM recorded as 93

Looking up COc1cc(-c2nnc(CSc3nc4sc(C(=O)O)c(C)c4c(=O)[nH]3)o2)cc(OC)c1OC [CBK296973] , I found its viability at 28.5 h, 10 µM recorded as 91
